Answer each item with its documented inhibition of SARS-CoV-2 cytopathic effect.
system: Vero E6 infected with SARS-CoV-2; assay: inhibition of SARS-CoV-2 cytopathic effect; higher = more antiviral protection, active = above 15; details: 8.33 nM; 48 h
One number for each entry, in %.

N#CC(=C(/N)Sc1ccccc1N)/C(C#N)=C(/N)Sc1ccccc1N ... 0.76
O=C(Nc1ccc(Cl)nc1)c1ccc(Cl)cc1 ... 1.94
CN1CCC(=C2c3ccccc3C=Cc3ccccc32)CC1 [cyproheptadine] ... -0.26
C[C@H](NCc1ccc(OCc2cccc(F)c2)cc1)C(N)=O [safinamide] ... 5.34

// batch mode: one inhibition of SARS-CoV-2 cytopathic effect value per listed entry
1. Clc1cc(Cl)c(OCC#CI)cc1Cl [haloprogin]
2. CCn1c2ccccc2c2cc(CNC)ccc21

Reply:
[-1.3, 4.54]

====

tested on: Vero E6 infected with SARS-CoV-2; experiment: inhibition of SARS-CoV-2 cytopathic effect; higher = more antiviral protection, active = above 15; conditions: 10000 nM; 48 h
Give one outcome, nothing more. List: 1 = active, -1 = inactive

Reference set (3 entries):
Cc1cc(C)c(NC(=O)N(Cc2ccc3c(c2)Cc2ccccc2-3)C2CCCCCC2)c(C)c1 ... -1
CC(C)(CO)CCCCCCC(C)(C)CO ... -1
CN1C(=O)/C(=C2/C(=O)Nc3ccccc32)c2ccccc21 ... 1

Ask: Dear colleague, could you share the recorded outcome for `CNC(=N)NC(=O)Nc1c(C)cccc1C` when you have a moment?
Reply: -1

Ask: Recorded test outcome, item `COc1ccc(CNC(=O)c2cc(-c3cncc(C)c3)ncc2-c2nccs2)nc1OC`
Reply: -1

====

tested on: Vero E6 infected with SARS-CoV-2; test: morphology score (similarity to uninfected cells); higher = more like uninfected cells; conditions: 24 h
Criterion: morphology score meeting or surpassing 0.01. Met: 1 (yes). Not met: 0 (no).

CC(Cc1ccc(O)cc1)NCC(O)c1cc(O)cc(O)c1 (stereo unspecified) [fenoterol] (10 µM) ... 0 (no)

Ask: State whether the measured morphology score reaches 0.01, counting equality as reaching it, for OCC(CO)N[C@H]1C[C@](O)(CO)[C@@H](O)[C@H](O)[C@H]1O [voglibose] (10 µM)
Reply: 0 (no)

Ask: Quick check, morphology score >= 0.01? COc1cc([C@@H]2c3cc4c(cc3[C@@H](O[C@@H]3O[C@@H]5CO[C@@H](C)O[C@H]5[C@H](O)[C@H]3O)[C@H]3COC(=O)[C@H]23)OCO4)cc(OC)c1O [etoposide] (10 µM)
Reply: 0 (no)

Ask: Say whether C[C@@]1(O)[C@H](O)[C@@H](CO)O[C@H]1n1ccc(N)nc1=O (10 µM) shows morphology score of 0.01 or more.
Reply: 1 (yes)

Ask: Reported morphology score reaches at least 0.01 for COc1cccc(OC)c1C(=O)N[C@@H]1C(=O)N2[C@@H]1SC(C)(C)[C@@H]2C(=O)O [methicillin] (10 µM) ?
Reply: 0 (no)

====

test system: Vero E6 infected with SARS-CoV-2; experiment: inhibition of SARS-CoV-2 cytopathic effect; higher = more antiviral protection, active = above 15; conditions: 10000 nM; 48 h
reported-metric: inhibition of SARS-CoV-2 cytopathic effect (%)
Numbers only, in %.

State recorded inhibition of SARS-CoV-2 cytopathic effect for all listed compounds.
1. CC(C)[C@](O)(c1ccc2cc(OC(F)F)c(OC(F)F)cc2c1)c1c[nH]nn1
2. Cc1oc2nc3c(c(NC(=O)CN4CCCC4=O)c2c1C)CCCC3
3. O=C(O)CCCCN(CCc1ccccc1OCc1ccc(CCc2ccccc2)cc1)Cc1ccc(C(=O)O)cc1 [cinaciguat]

Reply:
6.8
0.5
-3.15

Values compiled from the supplement of paper PMC13380429.
